Documented Total Cell Count across a set of molecules
# System: Fibroblast
# RUN DESCRIPTION: Multiplex assay against human fibroblast
# Assay type: toxicity, cell-based
# DETAILS: 48 h, 1 µM, compound concentration 1 uM, replicate 2
ATTRIBUTE MEASURED: Total Cell Count

COC(=O)C1=C(C)NC(C)=C(C(=O)OCCCN2CCC(c3ccccc3)(c3ccccc3)CC2)[C@H]1c1cccc([N+](=O)[O-])c1; 126
COc1ccccc1CN[C@H]1C2CCN(CC2)[C@H]1C(c1ccccc1)c1ccccc1; 82
O=c1cc(N2CCOCC2)oc2c(-c3cccc4c3sc3ccccc34)cccc12; 97
CC(C)OC(=O)N1CCC(Oc2ncnc3c2cnn3-c2ccc(S(C)(=O)=O)cc2F)CC1; 73
CC(C)(C)NC[C@H](O)COc1nsnc1N1CCOCC1; 106
CN1CCN(Cc2ccc(Nc3ncc(Cl)c(Nc4ccccc4S(=O)(=O)N(C)C)n3)cc2)CC1; 115
CC(C)c1noc(N2CCC(COc3ccc(-c4ccc(S(C)(=O)=O)cc4)nc3)CC2)n1; 70
CCc1ccc(OCc2ccccc2C(=O)Nc2ccc3nc(C)cc(N)c3c2)cc1.Cl; 96
COc1ccc(-c2ccc3ncc4c(c3c2)n(-c2ccc(N3CCNCC3)c(C(F)(F)F)c2)c(=O)n4C)cn1.O=C(O)/C=C\C(=O)O; 188
COc1cc(Nc2nccc(-c3cnn4nc(OC)ccc34)n2)cc(C(F)(F)F)c1; 82
CC(C)Oc1ccccc1C(=O)Nc1ccccc1C(=O)Nc1cccc(S(=O)(=O)C(F)(F)F)c1; 154
CC1=C(C(=O)Nc2cc3cn[nH]c3cc2F)C(c2ccc(C(F)(F)F)cc2)CC(=O)N1 (stereo not drawn); 127
Cl.O=C(O)c1cc(-c2ccc(C3CCNCC3)cc2)c2ccc(-c3ccc(C(F)(F)F)cc3)cc2c1; 104
Cc1ccccc1C(c1ccccc1C)N1C2CCC1CC(O)(c1ccccc1)C2 (stereo not drawn); 5
Cc1ccc2c(c1)c1c(n2CCc2ccc(C)nc2)CCN(C)C1 [LATREPIRDINE]; 206
COc1cc2ncn(-c3cc(OCc4ccccc4C(F)(F)F)c(C(N)=O)s3)c2cc1OC [GW843682X]; 120
Cc1c[nH]c2nccc(Oc3c(F)cc(Nc4cc(Cl)nc(N)n4)cc3F)c12; 184
Cc1ccc(C)c(Oc2ccncc2C(=O)N2CCN(C3CC3)c3ccccc32)c1; 91
